PROCEDURE_DETAILS: NCI Yeast Anticancer Drug Screen. Data for the wt1 strain (AID 149);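 further: 0% = growth of vehicle-treated wt1 cultures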
MEASUREMENT_CONTEXT: S. cerevisiae wt1 strain (SPY 50644) growth inhibition; at 3.7 µM; hits give high values
This is part of a sample that, as a whole, favours compounds with a hit. Of some 79,000 tested, about 15% had one in any assay.
OBSERVABLE: growth inhibition (%)

1. c1ccc2c(c1)ccc1c3ccncc3ccc21
-3
2. O=C1c2c(O)cccc2-c2nn(CCNCCO)c3ccc(NCCNCCO)c1c23
-2
3. CN(NC(=O)/C(=C/c1ccc(O)cc1)NC(=O)c1ccccc1)c1ccnc2cc(Cl)ccc12
4
4. Cc1ccc2c(ccc(/C=C/c3ccc(O)c4ncccc34)[n+]2C)c1
30
5. CN(C)CCN1C(=O)c2cccc3cc([N+](=O)[O-])cc(c23)C1=O
0
6. O=Nn1c2ccccc2c2ccccc21
21

----------
Listing of recorded growth inhibition by entry.
PROCEDURE_DETAILS: NCI Yeast Anticancer Drug Screen. Data for the rad14 strain (AID 159);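 further: 0% = growth of vehicle-treated control cultures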
MEASUREMENT_CONTEXT: S. cerevisiae rad14 strain growth inhibition; at 1.2 µM; hits give high values
This is part of a sample that, as a whole, favours compounds with a hit. Of some 79,000 tested, about 15% had one in any assay.
OBSERVABLE: growth inhibition (%)

1) CCCCCCCCCCCc1nc(N)n[nH]1
5
2) Cc1cccc2c1N=C(C(F)(F)F)CC2=O
3
3) CC(=O)OCC1OC(O[C@H]2C=C[C@@H](C(=O)OCc3ccccc3)n3c(=O)n(-c4ccccc4)c(=O)n32)C(OC(C)=O)C(OC(C)=O)C1OC(C)=O (some centres not stated)
-15
4) CCN(CC)CC(O)C1CCC(c2ccccc2)CC1 (configuration not stated)
13
5) NC(N)=N/N=C/c1cc(Cl)cc(Cl)c1O
-8
6) CC(=O)C1=C(O)C2(C)c3c(O)c(C)c(O)c(C(C)=O)c3OC2(Sc2ccccc2)CC1=O (configuration not stated)
0
7) O=[N+]([O-])c1c(/C=N/Nc2ccccc2)oc(-c2ccc3c(c2)OCO3)c1-c1ccc2c(c1)OCO2
0

----------
PROCEDURE_DETAILS: NCI Yeast Anticancer Drug Screen. Data for the mgt1 strain (AID 153)
MEASUREMENT_CONTEXT: S. cerevisiae mgt1 mutant growth inhibition; at 11.0 µM; hits give high values
The panel holds about 79,000 compounds, 15% with a hit somewhere; the sample as a whole holds those more often.
OBSERVABLE: growth inhibition (%)

1) Cc1ccc(Nc2n[nH]c(=S)s2)cc1
-3
2) COc1ccc(N)c2c1C(=O)c1ccccc1C2=O
8
3) CSc1s[s+]c(SC)c1-c1ccccc1
25
4) S=c1[nH]c2c(Cl)c(Cl)c(Cl)c(Cl)c2[nH]1
78

----------
PROCEDURE_DETAILS: NCI Yeast Anticancer Drug Screen. Data for the rad50EPP+ strain (AID 151);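 further: 0% = growth of vehicle-treated control cultures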
MEASUREMENT_CONTEXT: S. cerevisiae rad50 mutant strain, at 33.0 µM, hits give high values
Compounds without any hit were thinned out: in the full panel of roughly 79,000, 15% have a hit.
OBSERVABLE: growth inhibition (%)

1. Cc1cccc(/C=N/NC(=S)N(C)CCc2ccccn2)n1
84
2. CN(C)CC1CCCc2ccccc2C1=O (stereo not given)
76
3. COC(=O)/C=C1/OC(c2ccc(Br)cc2)=C(Br)C1=O
59
4. Cc1cc(Cl)nc2nc(Cl)c(N)cc12
0
5. O=S(=O)(N/N=C/c1cccc(Cl)c1)c1ccccc1
18
6. O=Cc1coc2ccccc2c1=O
66
7. Cc1cc(Cl)ccc1NC(=O)/C(Cl)=C1/Sc2ccccc2NC1=O
8
8. CC1(C)C(C=O)=CCC1CC(N)=O (stereo not given)
20
9. COC(=O)c1oc([N+](=O)[O-])c(Cl)c1Cl
98
10. CCc1nc(N)nc(N)c1-c1ccc(NCCCCCCN)c([N+](=O)[O-])c1
1

----------
growth inhibition reference
PROCEDURE_DETAILS: NCI Yeast Anticancer Drug Screen. Data for the bub3 strain (AID 167)
MEASUREMENT_CONTEXT: S. cerevisiae bub3 mutant strain, at 33.0 µM, hits give high values
The panel holds about 79,000 compounds, 15% with a hit somewhere; the sample as a whole holds those more often.
OBSERVABLE: growth inhibition (%)

1) Cc1cccc(/C=N/NC(=S)N(C)CCc2ccccn2)n1
98
2) CN(C)c1ccc(/C=C/c2ccnc3ccccc23)cc1N
-6
3) Cc1ccc(N=Nc2ccc(O)c(C)c2)cc1
97
4) CCN(CC)CCNC(=O)c1nn(-c2ccc(Cl)cc2)c2c1CCc1cc(OC)ccc1-2
13
5) CN(N=O)C(=O)N[C@@H](C=O)[C@@H](O)[C@H](O)[C@H](O)CO
-4
6) Clc1c(Cl)c(Cl)c2n[nH]nc2c1Cl
15
7) Cn1ncc2cc3c(Nc4ccc(Cl)cc4)cccc3nc21
-11
8) N#CC(=S)Nc1cccc(Cl)c1
41
9) c1ccc2c(c1)Cn1c-2nc2ccccc21
68
10) NC(N)=NCCCS(=O)(=O)Nc1ccc(Nc2c3ccccc3nc3cc([N+](=O)[O-])ccc23)cc1
3
11) CN(C)Cc1cccc(CN(C)C)[c]1[Sn]([Br])([c]1ccccc1)[c]1ccccc1
50
12) O=C1c2ccccc2CCC1(Br)Br
99
13) Cc1cc(C)c(N2C(=O)CC(Sc3ccccc3N)C2=O)c(C)c1 (stereo unspecified)
-48
14) CC(C)c1[nH]nc(C(N)=O)c1N=NN(C)C
-14
15) CCC(c1ccc(O)cc1)C(CC)c1ccc(OCCN)cc1 (stereo unspecified)
-1
16) C=C(CCCO)[C@@H]1CC[C@@](C)(O)[C@H]1C
-9
17) O=C(CNS(=O)(=O)Cc1ccccc1)NNc1ccccc1
8
18) OCCN(CCO)c1ccc2c(c1)Cc1ccccc1-2
-13
19) Cc1ccc2c(ccc(/C=C/c3ccc(O)c4ncccc34)[n+]2C)c1
91
20) CC(=O)C1=C(O)C2(C)c3c(O)c(C)c(O)c(C(C)=O)c3OC2(Sc2ccccc2)CC1=O (stereo unspecified)
51
21) CC(=O)Oc1ccc(N2C(=O)C3c4[nH]c5ccccc5c4C4CCC(C(C)(C)C)CC4C3C2=O)cc1 (stereo unspecified)
96

----------
Entries and their measured growth inhibition follow.
PROCEDURE_DETAILS: NCI Yeast Anticancer Drug Screen. Data for the wt1 strain (AID 149);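 further: 0% = growth of vehicle-treated wt1 cultures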
MEASUREMENT_CONTEXT: S. cerevisiae wt1 strain (SPY 50644) growth inhibition; at 33.0 µM; hits give high values
The panel holds about 79,000 compounds, 15% with a hit somewhere; the sample as a whole holds those more often. The source made the active and inactive calls. No stated cut-off is given here; in the data, active means growth inhibition above about 70%; inactive means the rest.
OBSERVABLE: growth inhibition

1. S=c1nc(Cl)cc2[nH]c(Cl)cn12
13% (inactive)
2. O=Nc1ccc(Nc2ccccc2)cc1
28% (inactive)
3. Cc1cccc(/C=N/NC(=S)N(C)CCc2ccccn2)n1
99% (active)

----------
PROCEDURE_DETAILS: NCI Yeast Anticancer Drug Screen. Data for the wt2 strain (AID 169);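 further: 0% = growth of vehicle-treated yeast cultures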
MEASUREMENT_CONTEXT: S. cerevisiae wt2 strain growth inhibition; at 100.0 µM
This is part of a sample that, as a whole, favours compounds with a hit. Of some 79,000 tested, about 15% had one in any assay. The source made the active and inactive calls. No stated cut-off is given here; in the data, active means growth inhibition above about 70%; inactive means the rest. Residues, ends and D or L forms follow the SMILES beside them. *: point of attachment. CH2Cl = ClC*
Possible outcomes: Y = active, N = inactive

1) CCc1[nH]nc(C(N)=O)c1N=NN(C)C
N
2) Cc1cc(OCc2ccccc2)ccc1[N+](=O)[O-]
N
3) Cc1ccc(I)cc1N=C=S
Y
4) Nc1ccc2c(c1)sc1ccccc12
Y
5) CNc1ccc(Cc2c[nH]c3ccccc23)cc1
N
6) Nc1ccc(S(=O)(=O)Nc2ccc(Nc3c4ccccc4nc4ccccc34)cc2)cc1
N
7) COC(=O)c1oc([N+](=O)[O-])c(Cl)c1Cl
Y
8) CCN1/C(=C/c2ccc3ccccc3[n+]2CC)C=Cc2ccccc21
Y
9) O=c1[nH]cc(/C=N\Nc2ccccc2)c(=O)[nH]1
N
10) CC(=O)NC(CC(C)C)C(=O)NC(Cc1ccccc1)C(=O)CCl (stereo not drawn) (Ac-Leu-Phe-CH2Cl; configuration not given here)
Y
11) COc1ccc(/C(C#N)=C/c2ccc(OC)c(OC)c2)cc1
N
12) Nc1cc(S(N)(=O)=O)ccc1SSc1ccc(S(N)(=O)=O)cc1N
N
13) CCC(C)(c1ccc(O)c(C)c1)c1ccc(O)c(C)c1
Y

----------
PROCEDURE_DETAILS: NCI Yeast Anticancer Drug Screen. Data for the sgs1 mgt1 strain (AID 161);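 further: 0% = growth of cultures given vehicle only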
MEASUREMENT_CONTEXT: S. cerevisiae sgs1 mgt1 strain, at 50.0 µM, hits give high values
Compounds without any hit were thinned out: in the full panel of roughly 79,000, 15% have a hit.
Would you mind labelling by growth inhibition? At or over 70% is Satisfied, under is Not satisfied.

1. O=C1c2ccccc2C(=O)c2cc(S(=O)(=O)Nc3ccccc3)ccc21
Satisfied
2. CC[C@@]1(OC(=O)CN(C)C)C(=O)OCc2c1cc1n(c2=O)Cc2cc3c(N)cccc3nc2-1
Not satisfied
3. COC(=O)CSc1nnc(CSc2ccc(Cl)cc2)n1-c1ccccc1
Not satisfied
4. O=C(NC(=S)Nc1ccccn1)c1ccccc1
Not satisfied
5. OC(CN1CCCCC1)c1cc(Cl)c(Cl)c(Cl)c1 (stereo unspecified)
Not satisfied
6. COc1ccc(C(C#N)=C2C=CC(=NO)C=C2)cc1
Satisfied
7. CCC(=O)Oc1ccc(/C=N/NC(N)=S)nc1
Not satisfied
8. CCN(CC)CCNC(=O)c1nn(-c2ccc(Cl)cc2)c2c1CCc1cc(OC)ccc1-2
Not satisfied
9. CCCCC(CC)C(=O)Oc1ccc(C(=O)c2ccccc2)c(O)c1 (stereo unspecified)
Satisfied
10. BrCc1ccccc1C(c1ccccc1)c1ccccc1
Satisfied
11. O=C1OC2C(O)COC2(OCc2c[nH]c3ccccc23)C1O (stereo unspecified) (tested in a mixture with another compound)
Not satisfied
12. O=c1[nH]cc(/C=N\Nc2ccccc2)c(=O)[nH]1
Not satisfied
13. Nc1cc(S(N)(=O)=O)ccc1SSc1ccc(S(N)(=O)=O)cc1N
Not satisfied
14. O=C1C(Cl)=C(Cl)C(Cl)(Cl)C(Cl)C1(Cl)Cl (stereo unspecified)
Satisfied
15. [N-]=[N+]=NC(c1ccccc1)(c1ccccc1)c1ccccc1
Satisfied
16. CCCCC1=NNC(=O)C1
Satisfied
